TARGET_OR_SYSTEM: T1, hRGMa-His (human, UniProt Q96B86 48-422, limits assumed)
T1 construct: also called human RGMa (BIAcore); not shown: His tag
T1 sequence: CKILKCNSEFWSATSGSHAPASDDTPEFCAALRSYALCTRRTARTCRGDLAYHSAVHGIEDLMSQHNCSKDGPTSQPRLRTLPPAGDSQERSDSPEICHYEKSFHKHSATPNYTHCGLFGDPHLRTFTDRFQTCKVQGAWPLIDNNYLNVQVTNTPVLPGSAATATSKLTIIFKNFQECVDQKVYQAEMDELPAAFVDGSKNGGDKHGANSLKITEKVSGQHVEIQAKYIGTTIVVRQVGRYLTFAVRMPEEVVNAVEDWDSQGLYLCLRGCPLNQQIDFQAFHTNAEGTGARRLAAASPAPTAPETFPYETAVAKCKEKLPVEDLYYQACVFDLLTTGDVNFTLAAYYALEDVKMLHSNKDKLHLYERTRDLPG
ASSAY_PROTOCOL: BIAcore
pKd: −log10 of the molar value.
Reported pKd values are given for each entry in this list.

BINDER: AE12-1-H (antibody, V domains shown, AE12-1 variant; IgG) VH: EVQLVQSGAEVKKPGASVKVSCKASGYTFTSHGISWVRQAPGQGLDWMGWISPYSGNTNYAQKLQGRVTMTTDTSTSTAYMELSSLRSEDTAVYYCARVGSGPYYYMDVWGQGTLVTVSS VL: QSALTQPRSVSGSPGQSVTISCTGTSSSVGDSIYVSWYQQHPGKAPKLMLYDVTKRPSGVPDRFSGSKSGNTASLTISGLQAEDEADYYCHSYAGTDTLFGGGTKVTVL
pKd: 8.42
--
BINDER: AE12-1-L (antibody, V domains shown, AE12-1 variant; IgG; also called AE-12-L) VH: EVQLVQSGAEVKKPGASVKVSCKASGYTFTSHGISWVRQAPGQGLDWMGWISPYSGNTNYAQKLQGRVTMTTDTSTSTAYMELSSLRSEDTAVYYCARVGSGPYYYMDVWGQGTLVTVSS VL: QSALTQPRSVSGSPGQSVTISCTGTSSSVGDSIYVSWYQQHPGKAPKLMLYDVTKRPSGVPDRFSGSKSGNTASLTISGLQAEDEADYYCLSYAGTDTLFGGGTKVTVL
pKd: 8.18
--
BINDER: AE12-1-V (antibody, V domains shown, AE12-1 variant; read as AE12-1-V from the order of the variants; IgG) VH: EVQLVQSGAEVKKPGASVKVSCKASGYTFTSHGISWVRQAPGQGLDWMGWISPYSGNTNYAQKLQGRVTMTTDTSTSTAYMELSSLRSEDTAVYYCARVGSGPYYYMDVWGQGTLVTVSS VL: QSALTQPRSVSGSPGQSVTISCTGTSSSVGDSIYVSWYQQHPGKAPKLMLYDVTKRPSGVPDRFSGSKSGNTASLTISGLQAEDEADYYCVSYAGTDTLFGGGTKVTVL
pKd: 8.23
--
BINDER: AE12-1-Y (antibody, V domains shown, AE12-1 variant; IgG) VH: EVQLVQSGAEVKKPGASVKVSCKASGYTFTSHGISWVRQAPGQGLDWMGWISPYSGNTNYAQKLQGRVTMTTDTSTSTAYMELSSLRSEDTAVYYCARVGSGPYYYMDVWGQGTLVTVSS VL: QSALTQPRSVSGSPGQSVTISCTGTSSSVGDSIYVSWYQQHPGKAPKLMLYDVTKRPSGVPDRFSGSKSGNTASLTISGLQAEDEADYYCYSYAGTDTLFGGGTKVTVL
pKd: 9.22
--
BINDER: AE12-1 (antibody, V domains shown, lambda light chain) VH: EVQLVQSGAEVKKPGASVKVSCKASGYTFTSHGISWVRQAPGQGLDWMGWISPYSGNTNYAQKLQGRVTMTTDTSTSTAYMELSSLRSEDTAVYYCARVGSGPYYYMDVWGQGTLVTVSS VL: QSALTQPRSVSGSPGQSVTISCTGTSSSVGDSIYVSWYQQHPGKAPKLMLYDVTKRPSGVPDRFSGSKSGNTASLTISGLQAEDEADYYCCSYAGTDTLFGGGTKVTVL
pKd: 8.14

Origin of measurements: patent US20160326240A1
